Hi there, I'd appreciate the recorded protein stability index for every entry that follows.
B1: TPD52L2 (parent)
chain: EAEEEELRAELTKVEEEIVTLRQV

Variants of: B1
experiment_summary: protein stability index of a GFP-peptide fusion (GPS, HEK-293T) (PSI 1-6); higher = more stable;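 note: lentivirally expressed fusions sorted by FACS into six bins by GFP to DsRed ratio, PSI derived from sequencing read proportions per bin multiplied by bin number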
measurement_context: c terminus: a fixed tail appended
Form field (numeric): enter value without unit.

// returns reported protein stability index for input L7F
5.23

Now the same for A2W
2.88

Cool, now E17Y
2.35

Again, but for E6T
3.58

# iterate: L21Q
5.13

Now give it for E10R too.
4.11

Param item: A2Q
4.57

Same for E3S
3.63

Could you do the same for L21Y , please?
3.34

Okay, and E10A ?
3.05

Next up: E1D
3.74

Another variant: E5N
2.28

Another variant to check: L21H
4.08

Also check A2H
3.23

Query L11F next
5.09

Same thing, different variant: V19W
2.54

Same read-out for E6V ?
3.81

What do you get for E3M ?
2.71

Same read-out for E3V ?
3.22

Similarly, Q23W ?
4.35

Item: E6A
3.06

Next variant: L21T
5.65

Measured values drawn from the supplement of paper PMC10567573 for this set.
